# targetUnderTest: T1, human folate receptor alpha (hFRα), recombinant protein (human, UniProt P15328 25-233)
# T1 construct: Bought recombinant proteins (His-tagged, or biotinylated via Avi-tag, e.g. AcroBiosystems FO1-H82E2, F01-H52H1); also called hFOLR1; huFOLR1
# T1 sequence (P15328 25-233 limits assumed): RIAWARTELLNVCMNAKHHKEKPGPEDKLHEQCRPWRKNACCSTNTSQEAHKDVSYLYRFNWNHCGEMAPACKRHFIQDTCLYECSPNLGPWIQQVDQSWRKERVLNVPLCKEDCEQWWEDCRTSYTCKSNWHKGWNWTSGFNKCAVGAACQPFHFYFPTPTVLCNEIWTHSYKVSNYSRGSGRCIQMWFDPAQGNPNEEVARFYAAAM
# method: BLI
endpointLabel: koff (s⁻¹)
Lab book: enter the figure in s⁻¹, no units written.

Query: Which koff is listed for P01500084: P0150001 with A24V, S27T, M32I, N76D (VHH) VHH: EVQLVESGGGLVQPGGSLRLSCAVSGTGFSGIIMGWYRQAPGKQRELVATVTSHGTTNYADSVKGRFTISRDNAKDTVYLQMNSLRPEDTAVYYCNAHFPGIYWGKGTLVTVSS ?
Result: 0.0336

Query: Give the measured koff of P01500087: P0150001 with A24L, S27A, M32P, N67E (VHH) VHH: EVQLVESGGGLVQPGGSLRLSCALSGAGFSGPIMGWYRQAPGKQRELVATVTSHGTTNYADSVKGRFTISRDNAKETVYLQMNSLRPEDTAVYYCNAHFPGIYWGKGTLVTVSS .
Result: 0.0269

Query: Param item = P01500012: P0150001 with M32I (VHH, Entry carries a His6 tag) VHH: EVQLVESGGGLVQPGGSLRLSCAASGSGFSGIIMGWYRQAPGKQRELVATVTSHGTTNYADSVKGRFTISRDNAKNTVYLQMNSLRPEDTAVYYCNAHFPGIYWGKGTLVTVSS ; retrieve measured koff.
Result: 0.0712

Query: So what does the record say about koff for P01500086: P0150001 with A24L, S27A, M32P (VHH) VHH: EVQLVESGGGLVQPGGSLRLSCALSGAGFSGPIMGWYRQAPGKQRELVATVTSHGTTNYADSVKGRFTISRDNAKNTVYLQMNSLRPEDTAVYYCNAHFPGIYWGKGTLVTVSS ?
Result: 0.024
